experiment: Components of the Cytosolic LPS Sensing Pathway: Gene Identification via Genome-wide siRNA Screen; settings: RAW264.7 macrophages, IL-1a HTRF, actives lie on both sides, screened at 100 nM (by protocol), cells primed 5 h with Pam3CSK4 first;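 note: robust z of the log signal after scaling to non-targeting control siRNA wells of the plate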
About 3,700 (7%) of roughly 53,000 sequences were called active. This excerpt belongs to a sample that is enriched for actives.
assay_readout: z-score

Use these answered entries as a reference point.
GGAAUAUGACUUCAAGAUGTT against Lmnb2	4.28 (active)
GGACUUUUUCAAAGGUUUUTT against Eif4g3	2.37 (active)
GGCUUAUACGCUCCAUAUUTT against Gykl1	-0.214 (inactive)

// for each sequence in input: emit z-score
1. GGUCAAUAUUGGCUUAUGUTT against Tmem42
2. GCAGUUCUCCUAUUUCAUCTT against Cdc45
3. GGUCAACAUUUGCUGUAAGTT against Inhba

-1.43 (inactive)
2.03 (active)
-0.599 (inactive)
